Recorded selectivity ratio at 72 h by entry
method: Antileishmanial activity assay (growth inhibition, absorbance at 600 nm) against L. infantum promastigotes
Assay type: cell-based, Leishmania infantum (strain MCAN/BR/2002/BH400)
condition.summary: Balb/c, mouse (macrophages); Leishmania infantum (promastigotes), pH 7; CC50 macrophages / IC50 L. infantum; read-out: a SI (selective index): ratio between CC50 in murine macrophages and IC50 in L. infantum

INSERT INTO measurements (entry_smiles, reported_property, measurement) VALUES
  ('CC(=O)Oc1ccccc1C(=O)O', 'selectivity ratio at 72 h', '< 1');

Returns the measured selectivity ratio at 72 h for the input molecule. Input: CC(=O)Oc1cccc(C(=O)O)c1
< 1

* * *

Reported log10(IC50) values for a set of molecules
Test system: L. infantum promastigotes
method: Antileishmanial activity assay (growth inhibition, absorbance at 600 nm) against L. infantum promastigotes
Assay type: cell-based, Leishmania infantum (strain MCAN/BR/2002/BH400)
condition.summary: promastigotes; IC50/72 h (source says 48 h); non-linear regression; read-out: IC50 (μM) ± SEM, L. infantum strain
# log10 transformed; quantity=IC50; unit=µM

Below are worked cases with known answers.
INSERT INTO results (molecule, system_name, reported_property, measurement) VALUES
  ('CC(=O)Oc1ccccc1C(=O)[O][Sb]([O]C(=O)c1ccccc1OC(C)=O)([c]1ccccc1)([c]1ccccc1)[c]1ccccc1 [Complex 1]', 'L. infantum promastigotes', 'log10(IC50)', 1.12),
  ('O=C([O-])[O-].c1cc[c]([Bi+2]([c]2ccccc2)[c]2ccccc2)cc1 [Complex M2, triphenylbismuth carbonate]', 'L. infantum promastigotes', 'log10(IC50)', 0.04),
  ('O=C([O-])[C@H]([O-])[C@@H]([O-])C(=O)[O-].O=C([O-])[C@H]([O-])[C@@H]([O-])C(=O)[O-].[K+].[K+].[Sb+3].[Sb+3] [TA, potassium antimony tartrate]', 'L. infantum promastigotes', 'log10(IC50)', 2.00);

Sample CC(=O)Oc1ccccc1C(=O)[O][Bi]([O]C(=O)c1ccccc1OC(C)=O)([c]1ccccc1)([c]1ccccc1)[c]1ccccc1 [Complex 3] — what was its log10(IC50)?
0.93

Ok, now CC(=O)Oc1cccc(C(=O)[O][Bi]([O]C(=O)c2cccc(OC(C)=O)c2)([c]2ccccc2)([c]2ccccc2)[c]2ccccc2)c1 [Complex 4]
0.60

Again, but for [Cl][Sb]([Cl])([c]1ccccc1)([c]1ccccc1)[c]1ccccc1 [Complex M1, triphenylantimony(V) dichloride]
1.12

* * *

System: L. infantum promastigotes
method: Antileishmanial activity assay (growth inhibition, absorbance at 600 nm) against L. infantum promastigotes
Type: cell-based, Leishmania infantum (strain MCAN/BR/2002/BH400)
condition.summary: CC50 macrophages / IC50 L. infantum
Procedure: The four complexes, their metal salts and their respective free ligands were primarily tested for their activity to investigate whether they inhibit the growth of L. amazonensis and L. infantum promastigotes. […] Complexes 1-4 were evaluated in vitro for their activity against two wild type Leishmania parasites. […] For drug susceptibility assay, Leishmania growth curves were constructed by measuring absorbance at 600 nm. […]
reported.property: a SI (selective index): ratio between CC50 in murine macrophages and IC50 in L. infantum
In your answer, state the number alone without any accompanying words.

Some solved cases for reference:
INSERT INTO results (compound, system_name, measurement) VALUES
  ('CC(=O)Oc1ccccc1C(=O)[O][Bi]([O]C(=O)c1ccccc1OC(C)=O)([c]1ccccc1)([c]1ccccc1)[c]1ccccc1', 'L. infantum promastigotes', 0.74),
  ('[Cl][Sb]([Cl])([c]1ccccc1)([c]1ccccc1)[c]1ccccc1 [Complex M1, triphenylantimony(V) dichloride]', 'L. infantum promastigotes', 1.7);

Look up a SI (selective index): ratio between CC50 in murine macrophages and IC50 in L. infantum: CC(=O)Oc1ccccc1C(=O)[O][Sb]([O]C(=O)c1ccccc1OC(C)=O)([c]1ccccc1)([c]1ccccc1)[c]1ccccc1
4.51

Try O=C([O-])[O-].c1cc[c]([Bi+2]([c]2ccccc2)[c]2ccccc2)cc1 [Complex M2, triphenylbismuth carbonate] next.
10.6
